- PROCEDURE SUMMARY: protein stability index of a GFP-peptide fusion (GPS, HEK-293T) (PSI 1-6); higher = more stable;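 further: 24-mer peptide tiles fused after GFP, lentivirally expressed, FACS-sorted into six equal bins by GFP/DsRed ratio, decoded by Illumina sequencing, PSI is the read-weighted mean bin number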
- CONDITION: treatment: DMSO; c terminus: a fixed tail appended
Classification field: YES = protein stability index at or over 4; NO = protein stability index under 4.

| RESIDUES | ASSIGNED CLASS |
| --- | --- |
| EIQVDSEEPVFEAVINWVKHAKKE [KLHL12] | NO |

Inquiry: Form field: protein stability index at least 4? Entry: AEEAEILHSACGLSKDHQEVETEG [TOR1AIP2]
Reply text: YES

Inquiry: // same read-out, input: TPAITVSNSCPAELPNIKREISET [TFE3]
Reply text: YES

Inquiry: Follow-up item: QGDSSQQSLKGHLRNNFQKQLLSN [ZC2HC1C]
Reply text: NO

Inquiry: And what about the sequence SNLLKAGFIRHTVNKITFSEQCYY [DVL3] ?
Reply text: NO

Inquiry: Same lookup for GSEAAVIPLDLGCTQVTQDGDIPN [FAM189A2] , please.
Reply text: YES

Inquiry: Param item: GLDYLHSKCKIIHTDIKPENILMC [SRPK2]
Reply text: NO

###

- PROCEDURE SUMMARY: protein stability index of a GFP-peptide fusion (GPS, HEK-293T) (PSI 1-6); higher = more stable
- CONDITION: treatment: MLN4924 1 uM, 8 h; c terminus: a fixed tail appended
Binary call on protein stability index: YES from 3 upward, NO beneath that.

# count of solved cases: 2
| RESIDUES | ASSIGNED CLASS |
| --- | --- |
| DLINKMLTINPAKRITASEALKHP [CAMK2D] | NO |
| VLGTKVDAERDGVKVPTTLAEYCV [CDC34] | YES |

Inquiry: In plain terms: is recorded protein stability index at least 3 for QRQKYLSLQQMQELSNILNLSYKQ [NANOGP8] ?
Reply text: NO

Inquiry: Also need ARLTYSIVGNQVQGAPASSFVYVN [PCDHGC5] , thanks.
Reply text: NO

Inquiry: Moving on to the next sequence: SSRIEQGEWGGRHPSWPWTRCLRM
Reply text: NO

Inquiry: Queued: DNPPTFSQVSYFTYIPENNARGAS [PCDHGA10]
Reply text: YES

Inquiry: Try LEQASSHIGNSTQATVRDAVVGRP [ATL3] next.
Reply text: YES

Inquiry: Try this sequence next: LELLGASFANDRENYDIIKTYHYL [FEM1B]
Reply text: NO

Inquiry: Proceed to RGRYGPPSRRSENRVVVSGLPPSG [SRSF1]
Reply text: YES

Inquiry: Next record, please: GVSEILLKTQMKMSLKCLAARAVR [FEM1B]
Reply text: NO

Inquiry: Proceed to KILISGLEPSTPYRFLLYGLHEGK [TNXB]
Reply text: YES

###

Reported protein stability index values for a set of sequences
- PROCEDURE SUMMARY: protein stability index of a GFP-peptide fusion (GPS, HEK-293T) (PSI 1-6); higher = more stable
- CONDITION: treatment: MLN4924 1 uM, 8 h; c terminus: a fixed tail appended
// response body must contain only the number

The cases that follow already have their protein stability index on record.
| RESIDUES | ENDPOINT VALUE |
| --- | --- |
| RQVEKRRNSGPVVEKLKQMQEFFG [MMP1] | 3.07 |
| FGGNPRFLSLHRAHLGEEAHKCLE [ZNF263] | 3.14 |
| RNSGIIGGKYLGRTKVVKPYSTVD [EFHC1] | 3.46 |
| AACLLQLKGVKQACCEFLESQLDP [KLHL12] | 2.88 |
| LPTLVPWYFWGETFQNSVFVATFL [SCD] | 3.09 |
| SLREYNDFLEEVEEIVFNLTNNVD [MNAT1] | 3.13 |
| EEEENRDSQQPGKRRKDSEEEAAS [FANCE] | 5.73 |
| FDVAFIGSIMTVWLSTAPTEPLTH [CARM1] | 2.88 |

Continue with the sequence presented below.
Inquiry: Look at this sequence and give its reported protein stability index. PTPSSPLPSVPVSVPASDPRSCSS [PLEKHN1]
Reply text: 5.14
